# System: HepG2 cells
# assay.procedure: Total protein content (PC) cytotoxicity assay
# Type: cell-based, human
# assay.setup: Homo sapiens; PC, HepG2, 24 h, mean ± SEM (n = 3); read-out: IC50 (µM) ± SEM
metric: IC50 (µM)
Report only the number, with the unit µM understood.

For "Cc1ccc(/N=C/N(C)/C=N/c2ccc(C)cc2C)c(C)c1" the molecule record lists IC50 as 260

The reported measurements were obtained from paper PMC9954107.
